test method notes: observed phase transition temperature of phospholipids
Type: physicochemical
recorded conditions: phospholipid
Lab note: compare observed phase transition temperature against 50 °C. Equal or greater, write label 1. Smaller, write label 0.

Q) Record CCCCCCCCCCCCCCCCCC(=O)OCC(COP(=O)(O)OCC(O)CO)OC(=O)CCCCCCCCCCCCCCCCC (stereo not shown) ; criterion: observed phase transition temperature no lower than 50 °C. Met?
A) label 1

Q) Also CCCCCCCCCCCCCCCCCC(=O)OC(COC(=O)CCCCCCCCCCCCCCC)COP(=O)([O-])OCC[N+](C)(C)C (stereo not shown) , if possible.
A) label 0

Q) Also CCCCCCCCCCCCCC(=O)OC[C@H](COP(=O)([O-])OCC[N+](C)(C)C)OC(=O)CCCCCCCCCCCCC , if possible.
A) label 0

Q) Also CCCCCCCCCCCCCCCCCC(=O)OCC(COP(=O)([O-])OCC[N+](C)(C)C)OC(=O)CCCCCCCCCCCCCCC (stereo not shown) , if possible.
A) label 0

Recorded values, source patent US5019394A.
